Source listed as the supplement of paper PMC10567573.

B1: TRIM9 (parent)
chain: PRNSCITCPQCHRSLILDDRGLRG

variants of: B1; assay: protein stability index of a GFP-peptide fusion (GPS, HEK-293T) (PSI 1-6); higher = more stable; details: c terminus: a fixed tail appended;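 also: lentivirally expressed fusions sorted by FACS into six bins by GFP to DsRed ratio, PSI derived from sequencing read proportions per bin multiplied by bin number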
protein stability index overview

| item-sequence | protein stability index |
| --- | --- |
| PRNSCETCPQCHRSLILDDRGLRG [I6E] | 2.02 |
| NRNSCITCPQCHRSLILDDRGLRG [P1N] | 2.16 |
| WRNSCITCPQCHRSLILDDRGLRG [P1W] | 1.94 |
| PRNSCITFPQCHRSLILDDRGLRG [C8F] | 1.57 |
| PRNSCITCPQCHRSLILDDRGLGG [R23G] | 2.48 |
| PRNSCITCPQCHRSLILDDQGLRG [R20Q] | 2.04 |
| PRNSCITCPQCHRSLILDDRGLDG [R23D] | 2.96 |
| PRNSCITCPQCHRSLILYDRGLRG [D18Y] | 2.36 |
| PRESCITCPQCHRSLILDDRGLRG [N3E] | 2.16 |
| HRNSCITCPQCHRSLILDDRGLRG [P1H] | 2.47 |
| PRNMCITCPQCHRSLILDDRGLRG [S4M] | 2.89 |
| PRNSCSTCPQCHRSLILDDRGLRG [I6S] | 2.02 |
| PRNSCITCPQCHRSLILDWRGLRG [D19W] | 1.52 |
| PRNSCITCPQCHRSLILDDRGLRE [G24E] | 2.6 |
| PRNSCITCPGCHRSLILDDRGLRG [Q10G] | 4.38 |
| PRNSCITPPQCHRSLILDDRGLRG [C8P] | 3.14 |
| PRNSGITCPQCHRSLILDDRGLRG [C5G] | 2.75 |
| PRNSCITCPQCHRSLILDDKGLRG [R20K] | 1.98 |
| PRNSCITCPQCHRSLILDNRGLRG [D19N] | 1.93 |
| PRNSCITQPQCHRSLILDDRGLRG [C8Q] | 2.16 |
| PRNSCITCPQCHRSLILDDRYLRG [G21Y] | 2.24 |
| PRNSCITCPQCHRSLILDYRGLRG [D19Y] | 1.7 |
| PRNSCITCPQCHRSLILDDRGLRH [G24H] | 3.02 |
| PRNSCITKPQCHRSLILDDRGLRG [C8K] | 2.4 |
| PRNSCITCPQCHRSLSLDDRGLRG [I16S] | 2.97 |
| PRNSCITCPQCHRSFILDDRGLRG [L15F] | 3.08 |
| PRNSCITCPQYHRSLILDDRGLRG [C11Y] | 2.11 |
| PRNSCITCPQCHRSLILDDRGLIG [R23I] | 2.08 |
| PRNSCITCPQCHRSDILDDRGLRG [L15D] | 2.51 |
| PRNSCITCPQCHRSLILDDCGLRG [R20C] | 2.39 |
| PRNSCITCPQCHRSLIMDDRGLRG [L17M] | 2.21 |
| PRNSCITCPQCHSSLILDDRGLRG [R13S] | 2.9 |
| PRNSQITCPQCHRSLILDDRGLRG [C5Q] | 1.92 |
| PRNSCITCSQCHRSLILDDRGLRG [P9S] | 2.16 |
| PRNSCITCPQCHRSLILDDRGLFG [R23F] | 2.75 |
| PRNSCITCPQCHRSLILDDPGLRG [R20P] | 2.6 |
| PRNSCITCPQCHRSLILDDRGLWG [R23W] | 1.25 |
| PRNSCITCPQCMRSLILDDRGLRG [H12M] | 2.78 |
| PRNSCITCPQCHRSLILDDRGKRG [L22K] | 2.46 |
| PLNSCITCPQCHRSLILDDRGLRG [R2L] | 2.24 |
| PRNSCITCPQCHRSLELDDRGLRG [I16E] | 3.16 |
| PRNSCITCPQCHASLILDDRGLRG [R13A] | 3.91 |
| PRNSCITCPQCHRSLILDDRGLRD [G24D] | 2.08 |
| PRNSCITCPQCHRSHILDDRGLRG [L15H] | 2.45 |
| PRNSCITCPNCHRSLILDDRGLRG [Q10N] | 2.47 |
| PRNSCITCPQCHRSLILDDRGLRW [G24W] | 1.76 |
| PRNSCITCPQAHRSLILDDRGLRG [C11A] | 2.29 |
| PRNSPITCPQCHRSLILDDRGLRG [C5P] | 2.49 |
| PRNSCITCPQCHRSLLLDDRGLRG [I16L] | 2.38 |
| PRNSCGTCPQCHRSLILDDRGLRG [I6G] | 1.93 |
| PRNSCLTCPQCHRSLILDDRGLRG [I6L] | 2.26 |
| PRNSCITCPQCHRSLILDDEGLRG [R20E] | 2.7 |
| PRNSCITCPQCHPSLILDDRGLRG [R13P] | 1.97 |
| PRNSCITCPQCHRSLILDDRILRG [G21I] | 1.47 |
| PRNSCITCPQCHRSLILDDNGLRG [R20N] | 2.05 |
| PRSSCITCPQCHRSLILDDRGLRG [N3S] | 2.5 |
| PRNSCITCPQCHGSLILDDRGLRG [R13G] | 2.37 |
| PRNSCITCPQCHRSLILDDRGDRG [L22D] | 3.81 |
| PRNSCITCPQCHWSLILDDRGLRG [R13W] | 2.42 |
| PVNSCITCPQCHRSLILDDRGLRG [R2V] | 1.92 |
| PRNSCITCPQCHRSLILDDRVLRG [G21V] | 1.78 |
| PRNSCITDPQCHRSLILDDRGLRG [C8D] | 2.24 |
| YRNSCITCPQCHRSLILDDRGLRG [P1Y] | 2.04 |
| PRNNCITCPQCHRSLILDDRGLRG [S4N] | 1.8 |
| PRNSCITCPQCHYSLILDDRGLRG [R13Y] | 2.53 |
| PRNSCIVCPQCHRSLILDDRGLRG [T7V] | 3.1 |
| PRNSCITCPQCHRSLILDDRGYRG [L22Y] | 2.54 |
| PRNSCITCPQCHRSLILDDRGNRG [L22N] | 2.34 |
| PRNSCITCPQHHRSLILDDRGLRG [C11H] | 2.51 |
| RRNSCITCPQCHRSLILDDRGLRG [P1R] | 2.28 |
| PRNSCITCPQCHRSLHLDDRGLRG [I16H] | 1.97 |
| PRDSCITCPQCHRSLILDDRGLRG [N3D] | 2.34 |
| PRNSCITCPQCHRSLILDDRGLRI [G24I] | 2.03 |
| PRNECITCPQCHRSLILDDRGLRG [S4E] | 2.2 |
| PRNSCITCCQCHRSLILDDRGLRG [P9C] | 2.45 |
| ERNSCITCPQCHRSLILDDRGLRG [P1E] | 3.1 |
| PRNSCITCPQCTRSLILDDRGLRG [H12T] | 1.38 |
| PRNSCITCPQCHRSLILSDRGLRG [D18S] | 2.3 |
| PRNSCITCPQCHRSLILDDRMLRG [G21M] | 2.8 |
| PRNSCITCPQCHRSLILDDRGERG [L22E] | 2.21 |
| PRNSCITCPQGHRSLILDDRGLRG [C11G] | 3.01 |
| PRNSCITCPQCHRSLILDDRNLRG [G21N] | 2.17 |
| PRGSCITCPQCHRSLILDDRGLRG [N3G] | 1.52 |
| PRNSCITCLQCHRSLILDDRGLRG [P9L] | 2.12 |
| PRNSCITCPQCHRPLILDDRGLRG [S14P] | 2.52 |
| PRNSCITCPQCHRSLILDDRGSRG [L22S] | 2.62 |
| PRNSCITCPQCHRSLILDDRHLRG [G21H] | 2.11 |
